So I've got a bunch of compounds here, and I need their percent inhibition (TR-FRET) values.
Biological target: MAGE-A11:PCF11 interaction (GST-MAGE-A11 and FAM-PCF11_4) (Homo sapiens, UniProt P43364)
Construct: GST-MAGE-A11 MHD (human MAGE-A11 MHD amino acid 218-429); made in house; host or cells: E. coli BL21(DE3)
Sequence (P43364 218-429): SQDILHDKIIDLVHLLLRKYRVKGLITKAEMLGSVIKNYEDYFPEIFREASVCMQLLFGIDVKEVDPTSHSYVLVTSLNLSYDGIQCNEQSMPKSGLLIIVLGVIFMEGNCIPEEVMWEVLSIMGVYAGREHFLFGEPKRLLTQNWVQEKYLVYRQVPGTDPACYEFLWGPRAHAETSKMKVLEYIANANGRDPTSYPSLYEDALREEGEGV
Assay: TR-FRET primary / single point screen at 15 µM
Format: binding
Conditions: single point TR-FRET screening of quinoline compounds against MAGE-A11:PCF11; 15 µM
Method: The TR-FRET assay buffer with a formula of 50 mM Tris pH 7.5, 20 mM MgCl2, 0.1 mg/ml BSA and 1 mM DTT was freshly prepared before each experiment. […] After incubation, the fluorescent emission signals at 520 nm and 490 nm channels of individual wells were measured with a PHERAstar FS plate reader (BMG Labtech; Durham, NC, USA) by using a 340 nm excitation filter, 100 µs delay time, and 200 µs integration time. […] The TR-FRET signals for individual wells were measured with a PHERAstar FS plate reader. […]
Returns: the value as a bare number; no unit string appended.

Q: Can you look up percent inhibition (TR-FRET) on MAGE-A11:PCF11 interaction (GST-MAGE-A11 and FAM-PCF11_4) (Homo sapiens, UniProt P43364) for CCCN(CCCNc1ccnc2cc(C(F)(F)F)ccc12)Cc1ccc(C)o1 [SJ000361261] ?
Ans: 23.9069

Q: Next up: Clc1ccc(Oc2ccc3c(NCCCNCc4ccco4)ccnc3c2)cc1 [SJ000311226]
Ans: 37.651

Q: Note, next up: COc1cccc(F)c1CN(CCCNc1ccnc2cc(Cl)ccc12)Cc1ccccc1 [SJ000357500]
Ans: -2.857

Q: Do the same for Oc1ccccc1CN(CCCNc1ccnc2cc(Cl)ccc12)Cc1ccccc1 [SJ000361167] please
Ans: 19.2696

Q: How about this compound: c1coc(CNCCCNc2ccnc3cc(CC4CCCCC4)ccc23)c1 [SJ000311250]
Ans: 40.6616

Q: What do you have for CCCN(CCCNc1ccnc2cc(C(F)(F)F)ccc12)Cc1cccs1 [SJ000361253] ?
Ans: 19.5346

Q: And Clc1ccc2c(NCCCN(Cc3ccccc3)Cc3ccc4ccccc4c3)ccnc2c1 [SJ000361182] ?
Ans: 22.052

Q: Do the same for CCCN(CCCNc1ccnc2cc(Cl)ccc12)Cc1cn(C)c2ccccc12 [SJ000522995] please
Ans: -1.532

Q: Let us now turn to CCCN(CCCNc1ccnc2cc(Cl)ccc12)Cc1cccc(C)c1 [SJ000523041]
Ans: 28.5489

Q: Also CCCN(CCCNc1ccnc2cc(C(F)(F)F)ccc12)Cc1ccc(Cl)c(C(F)(F)F)c1 [SJ000521015] , if possible.
Ans: 11.045

Q: Same question, Cc1ccc(CNCCCNc2ccnc3cc(C(F)(F)F)ccc23)o1 [SJ000361109] this time
Ans: 14.4523

Q: Now give it for CC(CCN(CCCNc1ccnc2cc(Cl)ccc12)Cc1ccccc1)c1ccccc1 (centres unmarked) [SJ000311184] too.
Ans: 17.3464

Q: And for CCCCCCN(CCCNc1ccnc2cc(Cl)ccc12)Cc1ccccc1 [SJ000361189] ?
Ans: -40.7502

Q: Now give it for CCCN(CCCNc1ccnc2cc(C(F)(F)F)ccc12)Cc1ccccc1[N+](=O)[O-] [SJ000523071] too.
Ans: -7.745

Q: Next: CCCN(CCCNc1ccnc2cc(Cl)ccc12)Cc1nccs1 [SJ000357454]
Ans: 11.9552

Q: Please do the same for CCCN(CCCNc1c2ccc(Cl)cc2nc2ccc(OC)cc12)Cc1ccc(C)o1 [SJ000520932] as well.
Ans: 0.9854

Q: And then FC(F)(F)c1ccc2c(NCCCNCC3CCCCC3)ccnc2c1 [SJ000361110] , what is it?
Ans: 27.1172

Q: Could you do the same for CCCN(CCCNc1c2ccc(Cl)cc2nc2ccc(OC)cc12)Cc1cc(OC(F)(F)F)ccc1OC [SJ000522984] , please?
Ans: -36.7058

Q: And then O=C(C[C@H]1CC[C@]2(CC1)OO[C@]1(O2)C2CC3CC(C2)CC1C3)NCCCNc1ccnc2cc(Cl)ccc12 [SJ000578380] , what is it?
Ans: 28.4789

Q: Entry to check: CCCN(CCCNc1ccnc2cc(C(F)(F)F)ccc12)Cc1ccccc1C(=O)O [SJ000523073]
Ans: 16.8563

Q: And the next one, CCCN(CCCNc1ccnc2cc(C(F)(F)F)ccc12)Cc1nccs1 [SJ000575189] ?
Ans: 8.665

Q: Quick one: CC(C)CCN(CCCNc1ccnc2cc(Cl)ccc12)Cc1ccccc1 [SJ000311183]
Ans: 2.673

Q: Next: CCCN(CCCNc1ccnc2cc(Cl)ccc12)Cc1ccccn1 [SJ000522743]
Ans: 1.3128

Q: Now the compound CCCN(CCCNc1ccnc2cc(Cl)ccc12)Cc1ccccc1OC(F)(F)F [SJ000357595]
Ans: -21.8698

Q: Same read-out for COc1ccc2nc3cc(Cl)ccc3c(NCCCNCc3ccc(-c4cccc(Cl)c4)o3)c2c1 [SJ000522959] ?
Ans: -47.4182

Q: Now consider FC(F)(F)Oc1cccc(CN(CCCNc2ccnc3cc(Cl)ccc23)Cc2ccccc2)c1 [SJ000520464] .
Ans: 27.7788

Q: Now the compound CCCN(CCCNc1ccnc2cc(Cl)ccc12)Cc1ccc(-c2cccc(Cl)c2)o1 [SJ000523045]
Ans: 16.2262

Q: Also, CCCN(CCCNc1ccnc2cc(C(F)(F)F)ccc12)Cc1cccc(OC)c1O [SJ000361260] please.
Ans: 15.4935

Q: Also check Cc1ccc(CNCCCNc2ccnc3cc(Cl)ccc23)s1 [SJ000311190]
Ans: 10.8349

Q: Same again, this time with CCCN(CCCNc1c2ccc(Cl)cc2nc2ccc(OC)cc12)Cc1ccccc1C(F)(F)F [SJ000520928]
Ans: 14.1686

Q: Try CCCN(CCCNc1c2ccc(Cl)cc2nc2ccc(OC)cc12)Cc1cccnc1Br [SJ000522977] next.
Ans: 0.2567

Q: Now try N#Cc1ccc(Cc2ccc3c(NCCCNCc4ccco4)ccnc3c2)cc1 [SJ000311302] .
Ans: 20.4271
